Cited source: patent EP4574844A1

molecular target: T1, recombinant cynomolgus PDL1 (cynomolgus monkey, UniProt G7PSE7 19-238); experiment: SPR
T1 construct: also called cynom; PDL1
T1 sequence (G7PSE7 entry or part of it): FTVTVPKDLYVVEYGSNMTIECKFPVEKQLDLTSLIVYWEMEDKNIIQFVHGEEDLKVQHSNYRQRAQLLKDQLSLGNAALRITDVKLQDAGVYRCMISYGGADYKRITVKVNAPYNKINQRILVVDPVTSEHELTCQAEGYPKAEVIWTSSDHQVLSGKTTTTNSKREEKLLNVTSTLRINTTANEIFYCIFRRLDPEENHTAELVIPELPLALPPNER
The following binders are shown together with reported kon values.
All answers are understood in M⁻¹ s⁻¹, so give the number only.

PRO4245 (scFv, anti-PDL1 scFv) scFv: DIQMTQSPSSLSASVGDRVTITCQASQSIGTYLAWYQQKPGKPPKLLIYRGGILASGVPSRFSGSGSGTDFTLTISSLQPEDFATYYCQSNFYSDSTTIGPNAFGTGTKVTVLGGGGGSGGGGSGGGGSGGGGSQQLVESGGGLVQPGGSLRLSCAASGFSFNSDYWIYWVRQAPGKGLEWIASIYGGSSGNTQYASWAQGRFTISKDNSKNTVYLQMNSLRAEDSAVYFCARGYVDYGGATDLWGQGTLVKVSS ... 4.6e+06

q: Input PRO1347 (scFv, anti-PDL1 scFv; also called 37-20-B03-sc09) scFv: DIQMTQSPASLSASVGDRVTITCQASQSIGTYLAWYQQKPGKPPKLLIYRAFILASGVPSRFSGSGSGTDFTLTISSLQPEDFATYYCQSNFYSDSTTIGPNAFGTGTKVTVLGGGGGSGGGGSGGGGSGGGGSEVQLVESGGGLVQPGGSLRLSCAASGFSFNSDYWIYWVRQAPGKGLEWIACIYGGSSGNTQYASWAQGRFTISRDNSKNTVYLQMNSLRAEDTAVYFCARGYVDYGGATDLWGQGTLVTVSS , output reported kon.
a: 6.88e+06

q: Given the binder PRO3891 (scFv, anti-PDL1 scFv) scFv: DIQMTQSPSSLSASVGDRVTITCQASQSINDYLAWYQQKPGKAPKLLIYKGGTLASGVPSRFSGSGSGTDFTLTISSLQPEDFATYYCQQGYIITDIDNVFGTGTKVTVLGGGGGSGGGGSGGGGSGGGGSQVQLQESGPGLVKPSETLSLTCKASGFSFSSGYDMCWVRQPPGKGLEWIACVVAGSVDITYYASWAKGRVTISKDSSKNQVSLKLSSVTAADSAVYYCARKDAYSDAFNLWGQGTLVKVSS , write its reported kon.
a: 5.9e+06

q: Supply kon value. Item: PRO1392 (scFv, anti-PDL1 scFv (VL-linker-VH); also called 33-03-G02-sc18) scFv: DIQMTQSPSSLSASVGDRVTITCQASQSINDYLAWYQQKPGKAPKLLIYKASTLASGVPSRFSGSGSGTDFTLTISSLQPEDFATYYCQQGYIITDIDNVFGTGTKVTVLGGGGGSGGGGSGGGGSGGGGSQVQLQESGPGLVKPSETLSLTCKASGFSFSSGYDMCWVRQPPGKGLEWIACVVAGSVDITYYASWAKGRVTISKDSSKNQVSLKLSSVTAADTAVYYCARKDAYSDAFNLWGQGTLVTVSS
a: 5.2e+06
